Data provenance: PubChem BioAssay

Test: blockers of polyQ-driven CASP3 activation – cell-based (AID 1583)
Details: polyglutamine-induced caspase-3 activation, cell assay; stronger effect = higher value; concentration not given here
endpoint-label: inhibition (%)
Give bare numbers, in %.

Known inhibition results, listed for orientation:
>  <compound>
Nc1ccc(C(=O)O)cc1

>  <inhibition [%]>
2.66

$$$$
>  <compound>
CCN(CC)CCNC(=O)c1cc(Br)c(N)cc1OC

>  <inhibition [%]>
15.4

$$$$
>  <compound>
NC(=O)c1ncn([C@@H]2O[C@H](CO)[C@@H](O)[C@H]2O)c1O

>  <inhibition [%]>
7.18

$$$$
>  <compound>
O=c1c(O)c(-c2ccc(O)c(O)c2)oc2cc(O)cc(O)c12

>  <inhibition [%]>
24.5

$$$$

Would you mind giving inhibition for every compound in the list below?
1. O=C(O)CCC(=O)c1ccc(-c2ccccc2)cc1
2. CCOC(N)=O
3. C[n+]1ccccc1/C=N/O
4. Nc1ccc(S(=O)(=O)Nc2cnc3ccccc3n2)cc1
5. CNC[C@H](O)c1cccc(O)c1
6. Nc1cc(-c2ccncc2)c[nH]c1=O
7. O=C(OCc1ccccc1)c1ccccc1

Result string:
1. 1.96
2. -5.88
3. 17.5
4. 26.1
5. -27.4
6. -0.86
7. 4.26

The following compounds each have a reported value; give each one's inhibition.
1. NCC1CCC(C(=O)O)CC1 (centres undefined)
2. Oc1cccc(O)c1
3. COc1ccc(CN(CCN(C)C)c2ccccn2)cc1

Result string:
-11.3
9.11
17.1

###

Consider the following compounds; for each one, report its inhibition.
Assay: blockers of polyQ-driven CASP3 activation – cell-based (AID 1583)
Details: polyglutamine-induced caspase-3 activation, cell assay; stronger effect = higher value; concentration not given here
Give bare numbers, in %.

>  <compound>
Nc1ccc(N=Nc2ccccc2)c(N)n1

>  <endpoint-label>
inhibition

>  <recorded-value>
8.8

$$$$
>  <compound>
C=C1c2cccc(O)c2C(O)=C2C(=O)[C@]3(O)C(O)=C(C(N)=O)C(=O)[C@@H](N(C)C)[C@@H]3[C@@H](O)[C@H]12

>  <endpoint-label>
inhibition

>  <recorded-value>
-86.7

$$$$
>  <compound>
CCC(Cc1c(I)cc(I)c(N)c1I)C(=O)O (stereo not given)

>  <endpoint-label>
inhibition

>  <recorded-value>
-9.96

$$$$
>  <compound>
Cc1c(NC(=O)c2cccnc2)c(=O)n(-c2ccccc2)n1C

>  <endpoint-label>
inhibition

>  <recorded-value>
13.7

$$$$
>  <compound>
CN1Cc2c(N)cccc2C(c2ccccc2)C1 (stereo not given)

>  <endpoint-label>
inhibition

>  <recorded-value>
63.6

$$$$

State the recorded inhibition for every item in the following list.
1. CN(C)CCC=C1c2ccccc2C=Cc2ccccc21
2. CN(C)c1ccc(C(=C2C=CC(=[N+](C)C)C=C2)c2ccc(N(C)C)cc2)cc1
3. Nc1ccc(S(N)(=O)=O)cc1
4. Cc1cc(=O)n(-c2ccccc2)n1C
5. O=C(O)CCCCC1CCSS1 (stereo not given)
6. CC(C)(Oc1ccc(Cl)cc1)C(=O)O

Result string:
1: -2.52; 2: 60.7; 3: -14.5; 4: 22; 5: -33.9; 6: 17.7

For each of the items listed, what is its inhibition?
1. Cn1c(=O)c2c(ncn2C)n(C)c1=O
2. CC(=O)N(O)CCCCCNC(=O)CCC(=O)N(O)CCCCCNC(=O)CCC(=O)N(O)CCCCCN
3. CC(Cc1cccc(C(F)(F)F)c1)NCCOC(=O)c1ccccc1 (stereo not given)

Result string:
1. 5.72
2. -1.64
3. 15

###

Experiment: RCMB18 cell growth, single agent and combined, cisplatin and BGB IC40 combos (AID 1671462);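 further: cells exposed to compound for four days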
Settings: RCMB18 medulloblastoma cells, at 0.5 µM, stronger effect = higher value
Active and inactive are the calls of the source. Rule as the data show it: active = inhibition above about 80%; inactive = the rest.
endpoint-label: inhibition

Field: example entries. Status: answers known.
>  <structure-smiles-string>
NC(=O)NO

>  <recorded-value>
12.5% (inactive)

$$$$
>  <structure-smiles-string>
O=NN(CCCl)C(=O)NCCCl

>  <recorded-value>
-5.05% (inactive)

$$$$

Then there is this molecule:
Query string: What measured inhibition goes with `O=C(O)CCCCCCCC(=O)O` ?
Result string: -9.8% (inactive)

###

For each record, write down the corresponding viability decrease (inhibition).
Experiment: reduced SW480 viability measured with CellTiter-Glo, NPC library, primary (AID 1117343)
Conditions: CellTiter-Glo luminescence; at 20 µM (top of the series)
Active and inactive are the calls of the source.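 The calls were made as follows: active = compounds that lower viability of the colon cancer cells in the luminescence readout, with no numeric limit stated; inactive = the rest.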

>  <compound>
Nc1nnc(-c2cccc(Cl)c2Cl)c(N)n1

>  <viability decrease (inhibition)>
29.2% (inactive)

$$$$
>  <compound>
CCc1c(C)[nH]c2c1C(=O)C(CN1CCOCC1)CC2 (stereo not given)

>  <viability decrease (inhibition)>
-3.8% (inactive)

$$$$
>  <compound>
NS(=O)(=O)c1cc2c(cc1Cl)NC(C(Cl)Cl)NS2(=O)=O (stereo not given)

>  <viability decrease (inhibition)>
-6.6% (inactive)

$$$$
>  <compound>
CO[C@@]1(NC(=O)C(C(=O)O)c2ccc(O)cc2)C(=O)N2C(C(=O)O)=C(CSc3nnnn3C)CO[C@@H]21 (stereo not given in full)

>  <viability decrease (inhibition)>
25.1% (inactive)

$$$$

Next up:
Query string: Requested field: viability decrease (inhibition). Item: `O=C1Nc2ccc(Cl)cc2[C@@](C#CC2CC2)(C(F)(F)F)O1`
Result string: 114% (active)

###

Experiment: compounds distorting NS3 helicase fluorescence signal – biochemical, NIH Clinical Collection, artefact control for HCV NS3 helicase inhibitor project (AID 743272);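 further: HCV NS3 helicase with a Cy5 labelled single stranded DNA probe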
Conditions: fluorescence interference counterscreen, HCV NS3 helicase assay; stronger effect = lower value
endpoint-label: fluorescence ratio
One number for each entry.

Reference set (3 entries):
>  <compound>
C[C@]12C[C@H](O)[C@H]3[C@@H](CCC4=CC(=O)CC[C@@]43C)[C@@H]1CC[C@@H]2C(=O)CO

>  <recorded-value>
0.99

$$$$
>  <compound>
CC(C)(C)C(O)/C=C/c1ccc2c(c1)OCO2 (centres undefined)

>  <recorded-value>
0.88

$$$$
>  <compound>
CC(C)c1nc(CN(C)C(=O)N[C@H](C(=O)N[C@@H](Cc2ccccc2)C[C@H](O)[C@H](Cc2ccccc2)NC(=O)OCc2cncs2)C(C)C)cs1

>  <recorded-value>
0.89

$$$$

Now consider a different compound.
Query string: Please report the recorded fluorescence ratio for CC(C)NCC(O)COc1ccc(CCOCC2CC2)cc1 (centres undefined) .
Result string: 0.95

###

Experiment: blockers of cytochrome c efflux from mitochondria – biochemical, purified mitochondria (AID 1603);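 further: mouse liver mitochondria challenged with calcium chloride; signal normalized to the plate average as 100%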
Details: stronger effect = lower value
endpoint-label: cytochrome c release ratio
Give bare numbers.

>  <molecule>
CC(=O)Oc1cccc(O)c1

>  <cytochrome c release ratio>
0.86

$$$$
>  <molecule>
CC(C)NNC(=O)c1ccncc1

>  <cytochrome c release ratio>
1.02

$$$$
>  <molecule>
NCC1CCC(C(=O)O)CC1 (stereo not drawn)

>  <cytochrome c release ratio>
0.77

$$$$
>  <molecule>
CCCCOc1ccc(C(=O)CCN2CCCCC2)cc1

>  <cytochrome c release ratio>
0.48

$$$$

I have 5 molecules here; please give me cytochrome c release ratio for each one.
1. CCN(CC)CCOc1ccc(/C(=C(\Cl)c2ccccc2)c2ccccc2)cc1
2. CCC(=O)O[C@H]1[C@H](O[C@@H]2[C@@H](C)[C@H](O[C@H]3C[C@@](C)(OC)[C@@H](O)[C@H](C)O3)[C@@H](C)C(=O)O[C@H](CC)[C@@](C)(O)[C@H](O)[C@@H](C)C(=O)[C@H](C)C[C@@]2(C)O)O[C@H](C)C[C@@H]1N(C)C
3. CCN1CCCC(OC(=O)C(c2ccccc2)c2ccccc2)C1 (stereo not drawn)
4. COc1ccc2c(c1)c(CC(=O)OCC(=O)O)c(C)n2C(=O)c1ccc(Cl)cc1
5. CN1CCC(OC(c2ccccc2)c2ccccc2)CC1

Result string:
1. 4.67
2. 1.02
3. 1.06
4. 1.11
5. 1.09

Below is a list of molecules. For each, state its recorded cytochrome c release ratio.
1. Cc1cc(=O)[nH]c(=S)[nH]1
2. Cc1ccccc1OCC(O)CO (stereo not drawn)
3. CCOc1ccc(Cc2nccc3cc(OCC)c(OCC)cc23)cc1OCC
4. Cn1c(=O)c2c(ncn2CC(O)CO)n(C)c1=O (stereo not drawn)

Result string:
1. 0.82
2. 1.09
3. 1.13
4. 1.19

###

Assay: EMT-state selective cytotoxicity in co-culture – imaging, PC-3E GFP, TEM4-18 mCherry, primary screen (AID 1345086);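 further: cells exposed to compound for 72 h before imaging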
Details: PC-3E GFP / TEM4-18 mCherry co-culture, imaging cell counts; measured here: mesenchymal TEM4-18 mCherry cell survival; at 1 µM
Categorized via normalised cell number: low: < 0.9; mid: ≥ 0.9 and < 1; high: ≥ 1

# count of solved cases: 5
>  <molecule>
OC[C@H]1O[C@@H](Oc2ccc(O)cc2)[C@H](O)[C@@H](O)[C@@H]1O

>  <class-name>
high

$$$$
>  <molecule>
COc1ccc(C(=O)c2ccccc2O)c(O)c1

>  <class-name>
high

$$$$
>  <molecule>
COc1ncnc(NS(=O)(=O)c2ccc(N)cc2)c1OC

>  <class-name>
low

$$$$
>  <molecule>
Nc1ccc(C(=O)Oc2ccccc2)c(O)c1

>  <class-name>
low

$$$$
>  <molecule>
O=C(Nc1ccc([N+](=O)[O-])cc1Cl)c1cc(Cl)ccc1O

>  <class-name>
low

$$$$

Query string: Please indicate the class for `CC1(C)NC(=O)N(c2ccc([N+](=O)[O-])c(C(F)(F)F)c2)C1=O` based on its normalised cell number.
Result string: high

Query string: Exercise: read the entry `O=P(O)(O)C(O)(Cc1cccnc1)P(=O)(O)O` and state which class it falls under.
Result string: low

Query string: Bin this entry: `CCCCOc1ccc(CC(=O)NO)cc1`
Result string: low

Query string: Hi there! Could you help me figure out the category for `CCc1nn(CCCN2CCN(c3cccc(Cl)c3)CC2)c(=O)n1CCOc1ccccc1` please?
Result string: high

Query string: Please indicate the class for `CN1C(C(=O)Nc2ccccn2)=C(O)c2sccc2S1(=O)=O` based on its normalised cell number.
Result string: mid

Query string: Classify this molecule: `O=c1cc[nH]c(=S)[nH]1`
Result string: high

Query string: Which normalised cell number band matches `O=C(O)CCNC(=O)c1ccc(N=Nc2ccc(O)c(C(=O)O)c2)cc1` ?
Result string: high

Query string: Which category does the recorded normalised cell number put CN(C)CCC(c1ccccc1)c1ccccn1 (centres undefined) in?
Result string: mid

Query string: Categorize the following entry: Oc1ccc(C2CNCCc3c2cc(O)c(O)c3Cl)cc1 (centres undefined)
Result string: high

Query string: Field: class (normalised cell number) — entry: `Cc1cc(NC(=O)C2=C(O)c3ccccc3S(=O)(=O)N2C)no1`
Result string: low

Query string: Dear colleague, I would appreciate it if you could identify the bin for `Nc1ncnc2c1ncn2[C@@H]1O[C@H](CO)[C@@H](O)[C@H]1O` and reply at your convenience.
Result string: mid

Query string: Category lookup for the molecule `CCOc1ccc(NC(C)=O)cc1`
Result string: high

Query string: Could you place `CCCCc1nc(Cl)c(CO)n1Cc1ccc(-c2ccccc2-c2nn[nH]n2)cc1` in its proper category? Many thanks.
Result string: high

Query string: Class for CO[C@@]1(NC(=O)C(C(=O)O)c2ccc(O)cc2)C(=O)N2C(C(=O)O)=C(CSc3nnnn3C)CO[C@@H]21 (some centres undefined) ?
Result string: high

Query string: # classify by normalised cell number band: Cc1cccc(C)c1OCC(C)N (centres undefined)
Result string: high

Query string: Which category does the recorded normalised cell number put `C/C=C1\[C@H]2C=C(C)C[C@]1(N)c1ccc(=O)[nH]c1C2` in?
Result string: high
